Entry source: patent US6777412B2

tested on: Phytophthora infestans lycopersici; assay type: in vivo; settings: 10 ppm foliar application only
Marks after values point to notes of the source that are not given here.
METRIC: disease control grading, Pil (Phytophthora infestans lycopersici)

1) COC=C(C(=O)OC)c1ccccc1Oc1nccc(-c2ccccc2)n1 [180 of Table III]	4^a (4=no disease)

----------
test system: Venturia inaequalis; assay: Foliar fungal disease test on plants: Venturia inaequalis (Vi); format: in vivo; conditions: 10 ppm foliar application only
Marks after values point to notes of the source that are not given here.
METRIC: disease control grading, Vi (Venturia inaegualis)

1. CO/C=C(/C(=O)OC)c1ccccc1Oc1cc(O/N=C(\C)c2ccccc2)ncn1 [403 of Table I]	4^a (4=no disease)
2. CO/C=C(/C(=O)OC)c1ccccc1Oc1cc(OCc2ccccc2C#N)ncn1 [389 of Table I]	4^a (4=no disease)

----------
system: Pyricularia oryzae; format: in vivo; settings: 10 ppm foliar application only
Marks after values point to notes of the source that are not given here.
METRIC: disease control grading, Po (Pyricularia oryzae)

1) CO/C=C(/C(=O)OC)c1ccccc1Oc1cc(OCc2ccccc2C#N)ncn1 [389 of Table I]	4^a (4=no disease)

----------
Each entry below carries its recorded disease control grading, Pil (Phytophthora infestans lycopersici).
system: Phytophthora infestans lycopersici; type: in vivo; conditions: 100 ppm active ingredient foliar spray plus root drench (approx. 40 ppm a.i. in dry soil), one or two days before inoculation
METRIC: disease control grading, Pil (Phytophthora infestans lycopersici)

1. CO/C=C(/C(=O)OC)c1ccccc1Oc1cc(OCCc2ccc(C#N)cc2)ncn1	4 (4=no disease)
2. CO/C=C(/C(=O)OC)c1ccccc1Oc1cc(Nc2ccccc2C#N)ncn1	4 (4=no disease)
3. CO/C=C(/C(=O)OC)c1ccccc1Oc1cc(OCCc2ccccc2F)ncn1	4 (4=no disease)
4. CO/C=C(/C(=O)OC)c1ccccc1Oc1cc(OCc2c(F)c(F)c(F)c(F)c2F)ncn1	4 (4=no disease)
5. CO/C=C(/C(=O)OC)c1ccccc1Oc1cc(OCC#Cc2ccccc2)ncn1	4 (4=no disease)

----------
Each entry below carries its recorded disease control grading, Egt (Erysiphe graminis tritici).
system: Erysiphe graminis tritici; assay: Foliar fungal disease test on plants: Erysiphe graminis tritici (Egt); format: in vivo; settings: 100 ppm active ingredient foliar spray plus root drench (approx. 40 ppm a.i. in dry soil); plants inoculated 24 hours before treatment
METRIC: disease control grading, Egt (Erysiphe graminis tritici)

1. CCCCOc1ccccc1Nc1cc(Oc2ccccc2/C(=C\OC)C(=O)OC)ncn1	4 (4=no disease)
2. CO/C=C(/C(=O)OC)c1ccccc1Oc1cc(OCc2ccncn2)ncn1	4 (4=no disease)
3. CO/C=C(/C(=O)OC)c1ccccc1Oc1cc(OCc2ccc(F)cc2)ncn1	4 (4=no disease)

----------
system: Venturia inaequalis; test: Foliar fungal disease test on plants: Venturia inaequalis (Vi); format: in vivo; conditions: 10 ppm foliar application only
Marks after values point to notes of the source that are not given here.
METRIC: disease control grading, Vi (Venturia inaegualis)

1) COC=C(C(=O)OC)c1ccccc1Oc1nccc(-c2ccccc2)n1	4^a (4=no disease)
